- assayNotes: AUClast in CD1 mouse at 10 mg/kg, iv measured up to 24 hrs measured by LC/MS-MS analysis
- Type: ADME, organism-based
- Parameters: route intravenous, dose 10 mg/kg, time <=24
- measurementConditions: in vivo
endpointLabel: AUC(0-t) at 24 h (ng·h/mL)
All answers are understood in ng·h/mL, so give the number only.

Can you share its AUC(0-t) at 24 h? I mean this molecule: Cn1cc(-c2cnc3ccc(NC(=O)Nc4cccc(C(F)(F)F)c4F)cc3n2)cn1
20300
